# SYSTEM: T1, Human AXL-Fc (R&D Systems, #154-AL) (human, UniProt P30530 26-451)
# T1 construct: Bought reagent; also called human AXL-Fc fusion protein; human AXL-Fc protein; not shown: Fc part of the bought fusion protein
# T1 sequence: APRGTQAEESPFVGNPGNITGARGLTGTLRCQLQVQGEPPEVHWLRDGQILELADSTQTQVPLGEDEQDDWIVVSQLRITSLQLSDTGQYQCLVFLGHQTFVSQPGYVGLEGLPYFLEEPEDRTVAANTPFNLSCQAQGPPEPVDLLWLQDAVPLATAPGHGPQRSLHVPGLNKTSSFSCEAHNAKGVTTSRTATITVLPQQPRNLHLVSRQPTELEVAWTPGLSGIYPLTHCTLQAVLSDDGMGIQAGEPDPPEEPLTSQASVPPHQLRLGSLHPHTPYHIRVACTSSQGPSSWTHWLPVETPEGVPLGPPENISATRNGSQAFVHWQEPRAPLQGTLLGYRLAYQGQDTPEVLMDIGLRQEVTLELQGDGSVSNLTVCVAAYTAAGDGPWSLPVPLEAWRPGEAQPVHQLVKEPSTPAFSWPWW
# PROTOCOL_DESCRIPTION: ELISA on plate-adsorbed human AXL-Fc (1 ug/ml), 5-fold antibody dilution series, AP-conjugated goat anti-human IgG, fluorescent substrate (Example 13)
MEASURED_METRIC: EC50 (read off the curve)

Answered cases to consult:
>>> measured_result("h#11B7-T26 (antibody, human IgG1, kappa, V domains shown, Humanized IgG1/kappa) VH: QVQLQESGPGLVKPSETLSLTCTVSGYSITSNYWGWIRQPPGKGLEWIGYITYSGSTSYNPSLKSRVTISRDTSKNQFSLKLSSVTAADTAVYYCAITTFYYWGQGTLVTVSS VL: DIQMTQSPSSLSASVGDRVTITCRASQDIGNYLRWYQQKPGKAPKLMISGATNLAAGVPSRFSGSGSGSDFTLTISSLQPEDFATYYCLQSKESPWTFGQGTKVEIKR")
"~0.03 µg/mL"
>>> measured_result("h#11B7-T24 (antibody, human IgG1, kappa, V domains shown, Humanized IgG1/kappa) VH: QVQLQESGPGLVKPSETLSLTCTVSGYSITSNYWGWIRQPPGKGLEWIGYITYSGSTSYNPSLKSRVTISRDTSKNQFSLKLSSVTAADTAVYYCAITTFYYWGQGTLVTVSS VL: DIQMTQSPSSLSASVGDRVTITCRASQDIGNYLRWYQQKPGKAPKLLISGATNLAAGVPSRFSGSGSGSDYTLTISSLQPEDFATYYCLQSKESPWTFGQGTKVEIKR")
"~0.02 µg/mL"

Q: Return EC50 (read off the curve) for the following binder: h#11B7-T21 (antibody, human IgG1, kappa, V domains shown, Humanized IgG1/kappa) VH: QVQLQESGPGLVKPSETLSLTCTVSGYSITSNYWGWIRQPPGKGLEWIGYITYSGSTSYNPSLKSRVTISRDTSKNQFSLKLSSVTAADTAVYYCAITTFYYWGQGTLVTVSS VL: DIQMTQSPSSLSASVGDRVTITCRASQDIGNYLRWYQQKPGKAPKLMISGATNLAAGVPSRFSGSGSGSDYTLTISSLQPEDFATYYCLQSKESPWTFGQGTKVEIKR
Result: ~0.02 µg/mL

Q: Return EC50 (read off the curve) for the following binder: h#11B7-T23 (antibody, human IgG1, kappa, V domains shown, Humanized IgG1/kappa) VH: QVQLQESGPGLVKPSETLSLTCTVSGYSITSNYWGWIRQPPGKGLEWIGYITYSGSTSYNPSLKSRVTISRDTSKNQFSLKLSSVTAADTAVYYCAITTFYYWGQGTLVTVSS VL: DIQMTQSPSSLSASVGDRVTITCRASQDIGNYLRWFQQKPGKAPKLMISGATNLAAGVPSRFSGSGSGSDFTLTISSLQPEDFATYYCLQSKESPWTFGQGTKVEIKR
Result: ~0.01 µg/mL
